Test system: SK-OV-3 ovarian
ASSAY SUMMARY: NCI tumour cell line growth inhibition, 48 h; in the data active means GI50 below about 0.43 µM; inactive means the rest
Your reply should match one of these outcome classes. active, inactive

Challenge: Give the logged outcome of this assay for the following compound: `COc1ccc2c(c1)C(=O)c1c-2c(N2CCN(C(=O)CNCCNCCO)CC2)nc2ccccc12`
Response given: inactive

Challenge: I'd appreciate the recorded outcome for `CCn1c2ccccc2c2cc(NC(=O)Nc3ccc([N+](=O)[O-])cc3C)ccc21` from this test.
Response given: inactive

Challenge: Record request — test call for `COc1cc(-n2cc(-c3ccc(F)cc3)[nH]c2=O)cc(OC)c1OC`
Response given: inactive

Challenge: Answer briefly: the call reported for `O=C(c1ccccc1)c1cc2ccccc2o1` in this assay.
Response given: inactive

Challenge: Per the records of this test, what outcome belongs to `C=CCCCCOc1ccccc1-c1cnc(OCCCCC=C)n1C` ?
Response given: inactive

Challenge: // outcome(item) with item = `O=c1cc(-c2cccc3ccccc23)[nH]c2ncccc12`
Response given: active

Challenge: So what was the verdict on `CNCC#Cc1c(F)ccc2c1/C(=C/c1[nH]ccc1OC)C(=O)N2` in this test?
Response given: active

Challenge: // outcome(item) with item = `CCOC(=O)Nc1ccc(-c2nc(-c3cccc(OCCN4CCOCC4)c3)c(-c3ccnc(Br)c3)[nH]2)cc1`
Response given: inactive

Challenge: Dear colleague, could you share the recorded outcome for `[Cl][Hg][c]1cc[c]([Hg][Cl])o1` when you have a moment?
Response given: inactive

Challenge: Each compound tested received a call. Report the one for `CC[C@H]1[C@@H]2C=C[C@@H]3[C@H]4C/C=C\C(=O)NCCC[C@@H]5NC(=O)/C(=C(O)/C=C/[C@@H]4C[C@@H]3[C@H]2C[C@H]1C)C5=O` .
Response given: inactive

Challenge: Record lookup: outcome of this test for `COc1ccc(-c2nn(-c3ccc(NC(=O)c4ccc(Cl)c(Cl)c4)cc3)cc2-c2ccncc2)cc1Cl` ?
Response given: inactive

Challenge: Check the results log: what was the call for O=C(CC1(O)C(=O)N(Cc2ccccc2)c2ccc(F)cc21)c1ccc(C(=O)NCC2CCC3(CC2)OOC2(CCCCC2)OO3)cc1 (configuration not stated) ?
Response given: inactive

Challenge: Assay outcome for `COc1cc(Cn2c(-c3ccccc3)c(Cl)c3c2-c2oncc2CC3)cc(OC)c1` : what was it?
Response given: inactive

Challenge: State the result this test recorded for COc1cccc2c1C(=O)c1c(O)c3c(c(O)c1C2=O)C[C@](O)(C(=O)CO)C[C@H]3O[C@@H]1C[C@@H](NC(=O)CCCCCN(C)C2(c3ccc(F)cc3)CC3CCC2C3)[C@H](O)[C@@H](C)O1 (some centres not stated) .
Response given: inactive

Challenge: What was the test verdict on CCSc1ncnc2c1ncn2C1OC(CO)C(O)C1O (configuration not stated) ?
Response given: inactive

Challenge: Assay outcome for `Cc1nn(-c2ccc(Cl)cc2)c2nc3c(nc12)C(=O)c1ccccc1-3` : what was it?
Response given: inactive

Challenge: What outcome does the record of this test show for `O=C1C=CC(=O)c2cc3cc(CBr)ccc3cc21` ?
Response given: inactive

---

Would you kindly list TGI for each of these molecules?
Tested on: MALME-3M melanoma
ASSAY SUMMARY: NCI tumour cell line growth inhibition, 48 h
Form entry: value (µM) — number only.

The value of TGI measured for the molecule `O=C(Nc1nc(C23CC4CC(CC(C4)C2)C3)cs1)c1cc2ccc(O)cc2oc1=O` turned out to be 34.5

For this molecule ( `Cc1[nH]nc(C(F)(F)F)c1N=NN1CCOCC1` ), measured TGI is 31.3

# TGI (molecule: `C[C@@H]1CC[C@@H]2[C@@H]1[C@H](OC(=O)/C=C/c1ccccc1)[C@]1(C3CCCCC3)C[C@@H](OC(=O)CO)[C@@]2(C)O1` ) is 7.21

For record `COc1ccc(C(=O)/C=C/c2cc(-c3cc(OC)c(OC)c(OC)c3)n[nH]2)cc1OC` the listed TGI is 3.68
